Tested on: LOX IMVI
Experiment: NCI tumour cell line growth inhibition, 48 h
Calls of active or inactive are those of the source. Cut-off read from the data, not from the text of the source: active = GI50 up to about 1.1 µM and inactive = higher.
GI50 overview

[
  {
    "TEST SMILES": "CC(C)C(OC(=O)c1ccc(NCC2=CC(=O)C=CC2=O)cc1)C(C)C",
    "GI50": "5.15 µM (inactive)"
  },
  {
    "TEST SMILES": "COC(=O)c1cc2c(=O)n(C)c3ccccc3n2c1C(=O)OC",
    "GI50": "45.2 µM (inactive)"
  },
  {
    "TEST SMILES": "Nc1nc2c(c(=O)[nH]1)N=C(COP(=O)(O)OP(=O)(O)O)CN2",
    "GI50": "> 100 µM (inactive)"
  },
  {
    "TEST SMILES": "Nc1ccc2nc(Nc3ccc(F)cc3)cnc2c1",
    "GI50": "> 100 µM (inactive)"
  },
  {
    "TEST SMILES": "O=C(/C=C/c1ccc(Cl)c(Cl)c1)c1ccc2ccccc2c1",
    "GI50": "> 100 µM (inactive)"
  },
  {
    "TEST SMILES": "CCOC(=O)C(=CNC(=S)Nc1c(CC)cccc1CC)C(=O)OCC",
    "GI50": "> 100 µM (inactive)"
  }
]

====

Tested on: UO-31
Assay: NCI tumour cell line growth inhibition, 48 h
The source made the active and inactive calls. Cut-off read from the data, not from the text of the source: active = GI50 up to about 1.1 µM and inactive = higher. Square brackets hold non-standard residues; d marks the D form. Peptide text beside a SMILES is read from it. * marks the point of attachment. Boc = CC(C)(C)OC(=O)*; Lac = C[CH](O)C(=O)O; OBn = c1ccc(CO*)cc1
Outcome codes: active, inactive

[
  {
    "COMPOUND": "Cc1cc2[nH]c3c(C#N)c4c(c(=O)n3c2cc1C)CCCC4",
    "ASSAYED SYSTEM": "UO-31",
    "CLASS LABEL": "inactive"
  },
  {
    "COMPOUND": "Cn1c(=S)c2nc(SCCN3CCCC3)[nH]c2n(C)c1=O",
    "ASSAYED SYSTEM": "UO-31",
    "CLASS LABEL": "inactive"
  },
  {
    "COMPOUND": "Cc1c(N/C=C(\\C#N)C(=O)c2ccc(Cl)cc2)c(=O)n(-c2ccccc2)n1C",
    "ASSAYED SYSTEM": "UO-31",
    "CLASS LABEL": "inactive"
  },
  {
    "COMPOUND": "Cc1nc2c(Br)cc(Br)cc2c(=O)n1-c1ccccc1N",
    "ASSAYED SYSTEM": "UO-31",
    "CLASS LABEL": "inactive"
  },
  {
    "COMPOUND": "O=c1nc(NC2CCCCO2)ccn1CCO (stereo not given)",
    "ASSAYED SYSTEM": "UO-31",
    "CLASS LABEL": "inactive"
  },
  {
    "COMPOUND": "CCOP(=O)(OCC)/C(=C/NC(=S)c1ccncc1)C(=O)OC",
    "ASSAYED SYSTEM": "UO-31",
    "CLASS LABEL": "inactive"
  },
  {
    "COMPOUND": "Cc1ccc(-c2sc(-c3ccc(C)cc3)c3c2C2CCC3C2)cc1",
    "ASSAYED SYSTEM": "UO-31",
    "CLASS LABEL": "inactive"
  },
  {
    "COMPOUND": "CC(OC(=O)C(Cc1ccccc1)NC(=O)C(Cc1ccccc1)NC(=O)OC(C)(C)C)C(=O)OCc1ccccc1 (stereo not drawn) (Boc-Phe-Phe-[Lac]-OBn; configuration not given here)",
    "ASSAYED SYSTEM": "UO-31",
    "CLASS LABEL": "inactive"
  },
  {
    "COMPOUND": "CC1(C2(C)OC(=O)c3ccccc32)OC(=O)c2ccccc21 (stereo not given)",
    "ASSAYED SYSTEM": "UO-31",
    "CLASS LABEL": "inactive"
  },
  {
    "COMPOUND": "CC1=CC=C2c3ccccc3C=CN2C(=O)C1",
    "ASSAYED SYSTEM": "UO-31",
    "CLASS LABEL": "inactive"
  },
  {
    "COMPOUND": "O=C1/C(=C/c2cccc(F)c2)CCCc2ccccc21",
    "ASSAYED SYSTEM": "UO-31",
    "CLASS LABEL": "inactive"
  },
  {
    "COMPOUND": "COc1ccc2c(c1)O[C@@H]1c3ccc(OC)cc3OC[C@H]21",
    "ASSAYED SYSTEM": "UO-31",
    "CLASS LABEL": "inactive"
  },
  {
    "COMPOUND": "Nc1ncnc2c1ccn2C/C=C/CO",
    "ASSAYED SYSTEM": "UO-31",
    "CLASS LABEL": "inactive"
  },
  {
    "COMPOUND": "O=[N+]([O-])c1cccc2nc3ccccc3c(NCCCCCNc3c4ccccc4nc4cccc([N+](=O)[O-])c34)c12",
    "ASSAYED SYSTEM": "UO-31",
    "CLASS LABEL": "active"
  },
  {
    "COMPOUND": "C=C1C(=O)OC2C1C(OC(=O)/C(=C/C)COC(C)=O)CC1(CO1)C1C(OC(=O)/C(=C/C)CO)C=C(C)C21 (stereo not given)",
    "ASSAYED SYSTEM": "UO-31",
    "CLASS LABEL": "inactive"
  },
  {
    "COMPOUND": "O=C1/C(=C/c2ccc(Cl)cc2)CCC1CNc1ccc(Cl)cc1 (stereo not given)",
    "ASSAYED SYSTEM": "UO-31",
    "CLASS LABEL": "inactive"
  },
  {
    "COMPOUND": "COC(=O)C1(C(=O)OC)CC2=C(S(=O)(=O)c3ccccc3)C[C@H](S(=O)(=O)c3ccccc3)[C@H]2C1",
    "ASSAYED SYSTEM": "UO-31",
    "CLASS LABEL": "inactive"
  },
  {
    "COMPOUND": "CC1CC2=C(S(=O)(=O)c3ccccc3)CC(S(=O)(=O)c3ccccc3)(S(=O)(=O)c3ccccc3)CC21 (stereo not given)",
    "ASSAYED SYSTEM": "UO-31",
    "CLASS LABEL": "inactive"
  },
  {
    "COMPOUND": "N#C/C(C(=S)Nc1ccccc1)=C(/N)N1CCCC1",
    "ASSAYED SYSTEM": "UO-31",
    "CLASS LABEL": "inactive"
  },
  {
    "COMPOUND": "N#CC(C/C=C/c1ccccc1)NNC(=O)c1c(Cl)c(Cl)c(Cl)c(Cl)c1-c1nc2cc(C(=O)c3ccccc3)ccc2[nH]1 (stereo not given)",
    "ASSAYED SYSTEM": "UO-31",
    "CLASS LABEL": "inactive"
  }
]
